Reference for the values: patent US12655116B2

tested on: AVEFA; assay: Pre-emergence herbicidal action against AVEFA; assay type: in vivo, Avena fatua; details: 80 g/ha, pre-emergence
experimental-endpoint: Pre-emergence action against AVEFA in %

QUERY: # get_value(readout= Pre-emergence action against AVEFA in %, system= AVEFA) for CCn1nnnc1NC(=O)c1ccc(C(F)(F)F)c(C(=O)NCC2CC2)c1SC
RESULT: 100%

QUERY: One more compound: Cc1nnc(NC(=O)c2ccc(C(F)F)c(C(=O)NCC(F)(F)F)c2Br)o1
RESULT: 80%

QUERY: One more compound: CNC(=O)c1c(C(F)(F)F)ccc(C(=O)Nc2nnco2)c1SC
RESULT: 80%

QUERY: One more compound: CCn1nnnc1NC(=O)c1ccc(C(F)F)c(C(=O)NC)c1SC
RESULT: 90%

QUERY: One more compound: CCn1nnnc1NC(=O)c1ccc(C(F)F)c(C(=O)NC(C)C2CC2)c1C (stereo not drawn)
RESULT: 80%

QUERY: One more compound: CCn1nnnc1NC(=O)c1ccc(C(F)(F)F)c(C(=O)NCC(F)F)c1Cl
RESULT: 90%

QUERY: One more compound: CCn1nnnc1NC(=O)c1ccc(C(F)(F)F)c(C(=O)NCC(F)F)c1C1CC1
RESULT: 80%

QUERY: One more compound: CCCn1nnnc1NC(=O)c1ccc(C(F)(F)F)c(C(=O)NC(C)=O)c1Cl
RESULT: 100%

QUERY: One more compound: CCn1nnnc1NC(=O)c1ccc(C(F)F)c(C(=O)NC)c1C
RESULT: 90%

----------
system: AMARE; test: Post-emergence herbicidal action against AMARE; format: in vivo, Amaranthus retroflexus; settings: 20 g/ha, visual assessment about 3 weeks after treatment, 100% = plants have died, 0% = like control plants
I'd appreciate it if you could supply Post-emergence action at 20 g/ha against AMARE in % values for the items below.
Answer with a number only, understood to be in %.

QUERY: Which Post-emergence action at 20 g/ha against AMARE in % reading was recorded for the compound Cc1nnc(NC(=O)c2ccc(C(F)(F)F)c(C(=O)NCC3CC3)c2Br)o1 ?
RESULT: 100

QUERY: One more compound: CCn1nnnc1NC(=O)c1ccc(C(F)F)c(C(=O)NC(C)C2CC2)c1SC (stereo not drawn)
RESULT: 100

QUERY: One more compound: CC(NC(=O)c1c(C(F)F)ccc(C(=O)Nc2nnnn2C)c1Br)C1CC1 (stereo not drawn)
RESULT: 90

QUERY: One more compound: CCNC(=O)c1c(C(F)(F)F)ccc(C(=O)Nc2nnnn2CC)c1CC
RESULT: 100

QUERY: One more compound: CCn1nnnc1NC(=O)c1ccc(C(F)(F)F)c(C(=O)NCC(F)(F)F)c1Cl
RESULT: 90

QUERY: One more compound: COCCNC(=O)c1c(C(F)(F)F)ccc(C(=O)Nc2nnnn2C)c1Cl
RESULT: 90

QUERY: One more compound: CCNC(=O)c1c(OC)ccc(C(=O)Nc2nnnn2CC)c1Cl
RESULT: 100

QUERY: One more compound: CSc1c(C(=O)Nc2nnc(C)o2)ccc(C(F)(F)F)c1C(=O)NC1CC1
RESULT: 100

QUERY: One more compound: CCn1nnnc1NC(=O)c1ccc(C(F)(F)F)c(C(=O)NC(C)C2CC2)c1C (stereo not drawn)
RESULT: 80

QUERY: One more compound: CCc1c(C(=O)Nc2ncnn2C)ccc(C(F)(F)F)c1C(=O)NC1CC1
RESULT: 80

QUERY: One more compound: Cn1nnnc1NC(=O)c1ccc(C(F)F)c(C(=O)NCC(F)F)c1Br
RESULT: 100

QUERY: One more compound: COCCNC(=O)c1c(C(F)F)ccc(C(=O)Nc2nnnn2C)c1Cl
RESULT: 90

QUERY: One more compound: CCNC(=O)c1c(Br)ccc(C(=O)Nc2nnc(C)o2)c1Cl
RESULT: 100

QUERY: One more compound: CCc1c(C(=O)Nc2nnnn2CC)ccc(C(F)(F)F)c1C(=O)NC(C)C1CC1 (stereo not drawn)
RESULT: 100

QUERY: One more compound: CCn1nnnc1NC(=O)c1ccc(C(F)(F)F)c(C(=O)NCCOC)c1C
RESULT: 100

QUERY: One more compound: CCNC(=O)c1c(C(F)(F)F)ccc(C(=O)Nc2nnc(C)o2)c1CC
RESULT: 90

QUERY: One more compound: COc1c(C(=O)Nc2nnc(C)o2)ccc(C(F)(F)F)c1C(=O)NC1CC1
RESULT: 80

QUERY: One more compound: CCc1c(C(=O)Nc2nnc(C)o2)ccc(C(F)(F)F)c1C(=O)NC
RESULT: 100
